# Test description: yeast display, Sf9 membrane polyspecificity reagent, FACS + sequencing; frameworks hold sequencing errors

Entry sequence	polyreactivity (PSR sort gate)
QVQLVESGGGLVQAGGSLRLSCAASGRIFGYYVMGWYRPAPGKERELVAAIRSSADSTYYADSVKGRFTISRDNAKNTVYLQMNSLKPEDTAVYDCAAQSPAYYTKSYWGQGTQVTVSS	low polyreactivity
QVQIVESGGGLFQAGGSLRISCAASGFTFPNYAMGWYRQAPGKERELVAAITSGGGRSNYADCVKGRFTISRDNAKKTFYLEMNSLKPEDSAVYYCAKTRVRGSEFGYWGQGTQVTVSS	low polyreactivity
QVQLVESGGGLVQAGGSLRLSCAASGRTFGGNGMGWYRQAPGKERELVASISFSGGAGTYYADSVKGRFTISRDIAKNTVYLQMNSLKPEDTAVYYCAKRYVTPTYRRYYWGQGTQVTVSS	high polyreactivity
QVQLVESGGGLVQAGGSLRLSCAASGNIFPPNTMGWYRQAPGKERELVAVITWSDGGTYADSVKGRFTISRDNAKNTVYLQMNSLKPEDSAVYYCNADYYFAAPKGEYTAWYDYWGQGTQVTVSS	low polyreactivity
QVQLVESGGGLVQEGGSLRLSCAASGRIFYFYAMGRYRQAPGKERELVADIDWSGDSTYYADSVKGRFTISRDNAKITVYLQMNSLIPEDTAVYYCNAAYYYYSTSYTYDYWGQGTQVTVSS	low polyreactivity
QVQLVESGGGLVQAGGSLRLSCAASVFIFAIYAMGWYRQAPGKERELVADINSDGSTYYADSVKGRFTISRDNAKNTVYLQMNSLKPEDTAVYYCNAETAGHDMDYWGQGTQVTVSS	low polyreactivity
QVQLVESGGGLVQAGGSLRLSCAASGLIFYDNMGWYIQAPGKEREMVAAISSSGGSTSYADSVKGRFTISRDNAKNTVYLQMNSLKPEDTAVYYCAADSYPAYLGFVGFDYWGQGTQVTVSS	low polyreactivity
QVQLVESGGGLVQAGGSLRLSCAASGSILSFNAMGWYRQAPGKERELVAAISRGGSTNYADSVKGRFTISRDNAKNTVYLQMNSLKPEDTAVYYCAAVQYRYSTRWARRAYDYWGQGTQVTVSS	high polyreactivity
QVQLVETGGGLVQAGGSLRLSCAASGITFKNYAMGWYRQANGKERELVATINRGSRTNYADSVKGRFTISRDNAKNTVYLQMNSLKPEDTAVYYCNVDQANYRWVPWEMDYWGQGSQVTVSS	low polyreactivity
QVQLVESGGGLVQSGGSLRLSCAASGFTFSRYAMGWYRQAPGKERELVAAINWSGGSTYYADSVKGRFTISRDNAKNTVYLQMNSLKPEDTAVYSCAKPAGGSGYDSWGQGTQVTVSS	high polyreactivity
QVQLVESGGRLVQAGGSLRLSCAASGRIFIYNAMGWYRQAPGKERELVAAISVSGGRTYYADSVKGRFTISRDNAKNTVYLQMNSLKPEDTAVYYCNKVRVGSLRGYWGQGTQVTVSS	high polyreactivity
